System: SW-837
test_name: 3D cell proliferation assay, KRAS G12C mutant cell line SW-837
Format: cell-based
test_settings: Homo sapiens, SW837, 168 h, 7 day
pIC50: −log10 of the molar value.
measurement_label: pIC50

• C=CC(=O)N1CCN(c2nc(OC[C@@H]3CCCN3C)c(C#N)c3c2CCN(c2cccc4cccc(Cl)c24)C3)C[C@@H]1CC#N (single isomer, unassigned) = 6.70 to 7.00

---

Test system: NCI-H358 cell line
test_name: In vitro cell proliferation assay (CCK-8) in NCI-H358 cell line
Assay type: cell-based
test_settings: Homo sapiens, TC1: Test Concentration of 3 uM, 72 hours
# inhibition at 3 µM values compiled below
measurement_label: inhibition at 3 µM

• C=C(F)C(=O)N1CCN(c2nc(OC[C@@H]3CCCN3C)c(C#N)c3c2CCN(c2cccc4cccc(Cl)c24)C3)C[C@@H]1CC#N [Ex 27] = 50 to 75%
• C=CC(=O)N1CCN(c2nc(OC[C@@H]3CCCN3C)c(C#N)c3c2CCN(c2cccc4cccc(Cl)c24)C3)CC1CC#N (mixture of isomers) [Ex 23] = 75 to 100%
• C=C(F)C(=O)N1CCN(c2nc(OC[C@@H]3CCCN3C)c(C#N)c3c2CCN(c2cccc4cccc(Cl)c24)C3)C[C@H]1CC#N [Ex 28] = 50 to 75%
• C=CC(=O)N1CCN(c2nc(OC[C@@H]3CCCN3C)c(C#N)c3c2CCN(c2cccc4cccc(Cl)c24)C3)CC1CC#N (single isomer, unassigned) [Ex 24] = 75 to 100%
• C=C(F)C(=O)N1CCN(c2nc(OC[C@@H]3CCCN3C)c(C#N)c3c2CCN(c2cccc4cccc(Cl)c24)C3)CC1CC#N (some centres unmarked) [Ex 26] = 25 to 50%

Sourced from patent US20240300942A1
